EXPERIMENTAL_TARGET: SARS-CoV-2 N-NTD (WT) (SARS-CoV-2, UniProt P0DTC9 41-174)
EXPERIMENT_DESCRIPTION: SPR
MEASUREMENT_KIND: pKd
The read-out pKd is expressed as -log10 of concentration in moles per litre.

Asked: Param item = AAGUUCGUUU (ssRNA) [viral RNA derived intergenic sequence] ; retrieve measured pKd.
Given back: 3.85
